Target: human orexin-2 receptor (Homo sapiens (Human), UniProt O43614)
Sequence (O43614 whole entry): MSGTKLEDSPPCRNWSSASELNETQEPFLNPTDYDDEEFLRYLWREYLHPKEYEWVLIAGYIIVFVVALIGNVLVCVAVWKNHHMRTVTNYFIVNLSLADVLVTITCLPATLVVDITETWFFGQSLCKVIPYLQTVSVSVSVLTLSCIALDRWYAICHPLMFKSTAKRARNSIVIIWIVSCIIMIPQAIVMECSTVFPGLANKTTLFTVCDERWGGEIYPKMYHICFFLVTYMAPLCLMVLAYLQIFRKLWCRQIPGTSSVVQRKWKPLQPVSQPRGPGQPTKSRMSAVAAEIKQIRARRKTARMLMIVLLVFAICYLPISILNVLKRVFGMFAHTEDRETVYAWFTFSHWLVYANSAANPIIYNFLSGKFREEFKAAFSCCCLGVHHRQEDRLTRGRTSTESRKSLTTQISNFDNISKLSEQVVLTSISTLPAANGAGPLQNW
Assay: FLIPR Ca2+ Flux Assay, orexin-2 receptor
Assay type: cell-based
Conditions: CHO cells, agonist 70 pM Ala-6,12 human orexin-A; read-out: hOX2R FLIPR IC50
observed_property: log10(IC50) (log10 of the value in nM)

compound | reported
COc1ccc(C(=O)N2C[C@H](Sc3cc(C#N)ccn3)CC[C@H]2C)c(-n2nccn2)n1 [Example 14] | 2.17
C[C@@H]1CC[C@@H](Sc2ncccc2C(=O)O)CN1C(=O)c1ccccc1-n1nccn1 [Example 48] | 2.80
C[C@@H]1CC[C@@H](Sc2cc(C#N)ccn2)CN1C(=O)c1cc(Cl)ccc1-n1nccn1 [Example 25] | 2.33
COC(=O)c1c(I)ccnc1S[C@@H]1CC[C@@H](C)N(C(=O)c2ccccc2-n2nccn2)C1 [Example 4] | 1.37
C[C@@H]1CC[C@@H](Sc2cc(C#N)ccn2)CN1C(=O)c1ccccc1Oc1ccccc1 [Example 29] | 1.80
C[C@@H]1CC[C@@H](Sc2cc(C#N)ccn2)CN1C(=O)c1ccccc1-c1ncccn1 [Example 41] | 1.28
C[C@@H]1CC[C@@H](Sc2cc(C#N)ccn2)CN1C(=O)c1cccnc1-c1ccccc1 [Example 32] | 1.86
C[C@@H]1CC[C@@H](Sc2cc(C#N)ccn2)CN1C(=O)c1ccccc1N1CCCC1 [Example 39] | 2.01

###

Biological target: hOX1R (Homo sapiens, UniProt O43613)
Experiment: FLIPR Ca2+ Flux Assay, orexin-1 receptor
Conditions: CHO cells, agonist 70 pM Ala-6,12 human orexin-A
observed_property: IC50

smiles_code | reported
COc1cccc(-n2nccn2)c1C(=O)N1C[C@H](Sc2cc(C#N)ccn2)CC[C@H]1C | 5.88 µM
COC(=O)c1ccnc(S[C@@H]2CC[C@@H](C)N(C(=O)c3ccccc3-n3nccn3)C2)c1 | 6.31 µM
COC(=O)c1cccnc1S[C@@H]1CC[C@@H](C)N(C(=O)c2ccccc2-n2nccn2)C1 | 0.0481 µM
COC(=O)c1c(I)ccnc1S[C@@H]1CC[C@@H](C)N(C(=O)c2ccccc2-n2nccn2)C1 | 0.0544 µM
C[C@@H]1CC[C@@H](Sc2cc(C#N)ccn2)CN1C(=O)c1sccc1-c1ncccn1 | 3.56 µM
C[C@@H]1CC[C@@H](Sc2cc(C#N)ccn2)CN1C(=O)c1ccsc1-n1nccn1 | 3.92 µM
Cc1cccc(C(=O)N2C[C@H](Sc3cc(C#N)ccn3)CC[C@H]2C)c1-n1nccn1 | 0.803 µM
C[C@@H]1CC[C@@H](Sc2cc(C#N)ccn2)CN1C(=O)c1ccccc1-n1nccn1 | 1.41 µM
COC(=O)c1c(OC)ccnc1S[C@@H]1CC[C@@H](C)N(C(=O)c2ccccc2-n2nccn2)C1 | 0.0732 µM
CSc1ccccc1C(=O)N1C[C@H](Sc2cc(C#N)ccn2)CC[C@H]1C | 8.72 µM
C[C@@H]1CC[C@@H](Sc2cc(C#N)ccn2)CN1C(=O)c1c(F)cccc1-n1nccn1 | 2.35 µM
C[C@@H]1CC[C@@H](Sc2cc(C#N)ccn2)CN1C(=O)c1ccc(F)cc1-n1nccn1 | 2.72 µM
COC(=O)c1c(C)ccnc1S[C@@H]1CC[C@@H](C)N(C(=O)c2ccccc2-n2nccn2)C1 | 0.0278 µM
C[C@@H]1CC[C@@H](Sc2cc(C#N)ccn2)CN1C(=O)c1ccccc1-c1cnn(C)c1 | 3.19 µM
C[C@@H]1CC[C@@H](Sc2cc(C#N)ccn2)CN1C(=O)c1ccc(Cl)cc1-n1nccn1 | 1.03 µM
COc1ccc(C(=O)N2C[C@H](Sc3cc(C#N)ccn3)CC[C@H]2C)c(-n2nccn2)c1 | 7.82 µM

Numbers sourced from patent US9617246B2.
